pIC50 overview
Tested on: Aβtotal
Assay: Method 1: Aβtotal sandwich ELISA in supernatant of SKNBE2 cells carrying APP 695-wild type (Tables 7a, 7b)
Type: cell-based
Conditions: Table 7a; SKNBE2 cells, compounds 18 h; XLfit 4-parameter fit of percent inhibition, top/bottom fixed to 100/0, hill slope 1
pIC50: −log10 of the molar value.
recorded-endpoint: pIC50

{"compound": "Cc1ncc(-c2ccc(Nc3cccn4cc(-c5ccc(F)cc5)nc34)cc2)o1 [Compound 42]", "recorded-endpoint": "pIC50", "result": "< 5.52"}
{"compound": "Cc1ncoc1-c1ccc(Nc2cccc3c2nc(-c2cccc(Cl)c2)n3C)nc1 [Compound 32]", "recorded-endpoint": "pIC50", "result": "< 5.00"}
{"compound": "Cc1ncoc1-c1ccc(Nc2cccc3c2nc(-c2ccc(F)cc2)n3C(C)(C)C)cn1 [Compound 34]", "recorded-endpoint": "pIC50", "result": "< 5.52"}
{"compound": "Cc1ncc(-c2ccc(Nc3cccc4c3nc(-c3ccc(F)cc3)n4C(C)C)cc2)o1 [Compound 19]", "recorded-endpoint": "pIC50", "result": "< 5.52"}
{"compound": "Cc1ncoc1-c1ccc(Nc2cccc3c2nc(-c2ccc(F)cc2)n3C)cn1 [Compound 35]", "recorded-endpoint": "pIC50", "result": "< 5.52"}
{"compound": "COc1cccc(-c2nc3c(Nc4ccc(-c5ocnc5C)c(OC)c4)cccc3n2C)c1 [Compound 20]", "recorded-endpoint": "pIC50", "result": "< 6.00"}
{"compound": "COc1cc(Nc2nccc3c2nc(-c2ccc(F)cc2F)n3C)ccc1-c1cnc(C)o1 [Compound 31]", "recorded-endpoint": "pIC50", "result": "< 5.52"}
{"compound": "COc1cc(Nc2cccc3c2nc(-c2ccc(F)cc2)n3C)ccc1-c1oc(C)nc1C [Compound 24]", "recorded-endpoint": "pIC50", "result": "< 5.52"}

* * *

System: Aβtotal
Experiment: Method 2: Aβtotal Alphalisa in supernatant of SKNBE2 cells carrying APP 695-wild type (Table 7c)
Format: cell-based
Details: Method 2, Alphalisa, overnight incubation
pIC50: −log10 of the molar value.

{"structure-as-smiles": "COc1cc(Nc2nc(C)cc3c2nc(-c2ccc(F)cc2)n3C)ccc1-c1ocnc1C", "pIC50": "< 5.00"}
{"structure-as-smiles": "Cc1cc(-c2ccc(Nc3cccc4c3nc(-c3ccc(F)cc3)n4C)nn2)ccn1", "pIC50": "< 5.00"}
{"structure-as-smiles": "COc1nc(Nc2cccc3c2nc(-c2ccc(F)cc2)n3C)ccc1-c1ccnc(C)c1", "pIC50": 5.28}
{"structure-as-smiles": "COc1cc(Nc2cc(F)cc3c2nc(N2CCCC2)n3C)ccc1-c1cnc(C)o1", "pIC50": "< 5.00"}
{"structure-as-smiles": "Cc1ccc(F)cc1-c1cn2nc(Cl)cc(Nc3ccc(-c4ocnc4C)nc3)c2n1", "pIC50": 5.17}
{"structure-as-smiles": "Cc1nc(C)c(-c2ccc(Nc3cccc4c3nc(-c3ccc(F)cc3)n4C(C)C)cn2)o1", "pIC50": "< 5.00"}
{"structure-as-smiles": "COCCc1c(-c2ccc(F)cc2)nc2c(Nc3ccc(-c4cnc(C)o4)c(OC)c3)cccn12", "pIC50": "< 5.00"}
{"structure-as-smiles": "COc1nc(Nc2cccn3c(C)c(-c4ccccc4Cl)nc23)ccc1-c1ccnc(C)c1", "pIC50": "~5.17"}

* * *

melting point values for the compounds below.
recorded-endpoint: melting point (°C)

{"structure-as-smiles": "COc1cc(Nc2cccc3c2nc(-c2ccc(F)cc2)n3C)ccc1-c1cnn(C)c1", "numeric-readout": 157.6}
{"structure-as-smiles": "COC(=O)c1cc(Nc2ccc(-c3ocnc3C)c(OC)c2)c2nc(CC(C)C)cn2c1", "numeric-readout": 157.1}
{"structure-as-smiles": "COc1cc(Nc2cccn3cc(-c4ccc(F)cc4)nc23)ccc1-c1ocnc1C", "numeric-readout": 163.2}
{"structure-as-smiles": "Cc1ncoc1-c1ccc(Nc2cccc3c2nc(-c2ccc(F)cc2)n3C)nc1", "numeric-readout": 195.4}
{"structure-as-smiles": "Cc1cn2cc(Br)nc(Nc3ccc(-c4cnc(C)o4)cc3)c2n1", "numeric-readout": 200.1}
{"structure-as-smiles": "COc1cc(Nc2cccn3cc(-c4ccc(F)cc4)nc23)ccc1-c1cnc(C)o1", "numeric-readout": 219.1}
{"structure-as-smiles": "COc1cc(Nc2cccc3c2nc(-c2ccc(F)cc2)n3C)ccc1-c1cnc(C)o1", "numeric-readout": 189}
{"structure-as-smiles": "Cc1ncc(-c2ccc(Nc3cccn4c(C(C)C)c(-c5ccc(F)cc5)nc34)cc2)o1", "numeric-readout": 157.2}

* * *

Test system: Aβtotal
Experiment: Method 2: Aβtotal Alphalisa in supernatant of SKNBE2 cells carrying APP 695-wild type (Table 7c)
Assay type: cell-based
Conditions: Method 2, Alphalisa, overnight incubation
Let's look at some compounds and their measured IC50.

{"compound": "Cc1ncoc1-c1ccc(Nc2cccn3cc(CC4CCOCC4)nc23)cn1 [Compound 164]", "IC50": "6.76 µM"}
{"compound": "Cc1cc(-c2ccc(Nc3nc(C)cc4c3nc(-c3ccc(F)cc3)n4C)cc2F)ccn1 [Compound 136]", "IC50": "> 10 µM"}
{"compound": "Cc1nc(C)c(-c2ccc(Nc3cccc4c3nc(-c3ccc(F)cc3)n4C(C)C)cc2)o1 [Compound 81]", "IC50": "> 10 µM"}
{"compound": "Cc1ncc(-c2ccc(Nc3cc(C#N)cc4c3nc(-c3ccc(F)cc3)n4C)cn2)o1 [Compound 86]", "IC50": "> 10 µM"}
{"compound": "Cc1ncc(-c2ccc(Nc3cc(F)cn4cc(-c5ccc(F)cc5C)nc34)cn2)o1 [Compound 171]", "IC50": "> 10 µM"}
{"compound": "COc1cc(Nc2cccn3c(C)c(-c4ccccc4Cl)nc23)ccc1-c1ccnc(C)c1 [Compound 201]", "IC50": "> 10 µM"}
{"compound": "Cc1cc(-c2ccc(Nc3cccc4c3nc(-c3ccc(F)cc3)n4C)cc2F)ccn1 [Compound 133]", "IC50": "> 10 µM"}
{"compound": "Cc1cc(-c2ccc(Nc3cccc4c3nc(-c3ccc(F)cc3)n4C(C)C)cc2F)ccn1 [Compound 137]", "IC50": "> 10 µM"}

* * *

{"compound": "COc1cc(Nc2nccc3c2nc(-c2ccc(F)cc2)n3C)ccc1-c1cnc(C)o1 [Compound 14]", "melting point": "204.9 °C"}
{"compound": "COc1cc(Nc2cc(C(F)(F)F)cn3cc(C(C)=O)nc23)ccc1-c1ocnc1C [Compound 165]", "melting point": "183.6 °C"}
{"compound": "Cc1ncc(-c2ccc(Nc3cccc4c3nc(-c3ccc(F)cc3)n4C(C)C)cn2)o1 [Compound 18]", "melting point": "133.4 °C"}

* * *

Tested on: Aβtotal
Experiment: Method 1: Aβtotal sandwich ELISA in supernatant of SKNBE2 cells carrying APP 695-wild type (Tables 7a, 7b)
Format: cell-based
Details: Table 7a; SKNBE2 cells, compounds 18 h; XLfit 4-parameter fit of percent inhibition, top/bottom fixed to 100/0, hill slope 1
The entries below come with measured IC50 values attached.

{"structure-as-smiles": "COc1cc(Nc2cccc3c2nc(-c2ccc(F)cc2)n3C(C)C)ccc1-c1cnc(C)o1.Cl.Cl", "test-target": "Aβtotal", "IC50": "> 3000 nM"}
{"structure-as-smiles": "Cc1ncc(-c2ccc(Nc3cccc4c3nc(-c3ccc(F)cc3)n4C)cn2)o1", "test-target": "Aβtotal", "IC50": "> 3000 nM"}
{"structure-as-smiles": "Cc1cc(F)ccc1-c1cn2cccc(Nc3ccc(-c4ocnc4C)nc3)c2n1", "test-target": "Aβtotal", "IC50": "> 10000 nM"}
{"structure-as-smiles": "COc1ccc(C)c(-c2cn3cccc(Nc4ccc(-c5cnc(C)o5)cc4)c3n2)c1", "test-target": "Aβtotal", "IC50": "> 3000 nM"}
{"structure-as-smiles": "Cc1ncc(-c2ccc(Nc3cccn4cc(-c5ccccc5C)nc34)cc2)o1", "test-target": "Aβtotal", "IC50": "> 3000 nM"}
{"structure-as-smiles": "Cc1ccc(-c2cn3cccc(Nc4ccc(-c5ocnc5C)nc4)c3n2)c(F)c1", "test-target": "Aβtotal", "IC50": "> 30000 nM"}
{"structure-as-smiles": "Cc1ncc(-c2ccc(Nc3cccn4c(C)c(-c5ccccc5Cl)nc34)cc2)o1", "test-target": "Aβtotal", "IC50": "> 3000 nM"}
{"structure-as-smiles": "Cc1ccc(-c2cn3cccc(Nc4ccc(-c5cnc(C)o5)cc4)c3n2)c(F)c1", "test-target": "Aβtotal", "IC50": "> 3000 nM"}
{"structure-as-smiles": "Cc1ncc(-c2ccc(Nc3nccc4c3nc(-c3ccc(F)cc3)n4C)cc2)o1", "test-target": "Aβtotal", "IC50": "> 3000 nM"}
{"structure-as-smiles": "COc1cc(-c2nc3c(Nc4ccc(-c5ocnc5C)cn4)cccc3n2C)ccc1Cl", "test-target": "Aβtotal", "IC50": "> 10000 nM"}
{"structure-as-smiles": "Cc1ncc(-c2ccc(Nc3cccn4cc(-c5cc(C(F)(F)F)ccc5C)nc34)cc2)o1", "test-target": "Aβtotal", "IC50": "> 3000 nM"}

Data provenance is patent US8946426B2.
